system: NCI/ADR-RES ovarian; assay: NCI tumour cell line growth inhibition, 48 h
TGI overview
Readout Kind: TGI

[
  {
    "Compound": "CC[N+]1(C)CCC(O)(/C=C/c2ccc(OC)cc2)C(C(=O)/C=C/c2ccc(OC)cc2)C1 (stereo unspecified)",
    "Readout Kind": "TGI",
    "Val": "> 60.8 µM"
  },
  {
    "Compound": "O=[N+]([O-])c1c(Br)cc(Br)c2c1Nc1c(ccc(Cl)c1Cl)S2",
    "Readout Kind": "TGI",
    "Val": "75.1 µM"
  },
  {
    "Compound": "Cc1ccc(C(=O)O)c(CC2Cc3c(C)cccc3C2=O)c1 (stereo unspecified)",
    "Readout Kind": "TGI",
    "Val": "> 100 µM"
  },
  {
    "Compound": "O=CC(O)C(O)C(O)C(O)C(=O)NCCCCCCCCCCCCNC(=O)C(O)C(O)C(O)C(O)C=O (stereo unspecified)",
    "Readout Kind": "TGI",
    "Val": "> 100 µM"
  },
  {
    "Compound": "COc1cc2nc(-c3ccc4ccccc4c3)[nH]c(=O)c2cc1OC",
    "Readout Kind": "TGI",
    "Val": "> 100 µM"
  },
  {
    "Compound": "COc1ccc(/C=c2\\[nH]c3nc(=O)c(N4CCOCC4)c(N)n3c2=O)cc1",
    "Readout Kind": "TGI",
    "Val": "> 100 µM"
  },
  {
    "Compound": "c1ccc(CCN2CCc3[nH]c4ccccc4c3C2)cc1",
    "Readout Kind": "TGI",
    "Val": "36.9 µM"
  },
  {
    "Compound": "Cc1ccc(S(=O)(=O)NCCNC2=CC(=O)c3nc4ccccc4c4ccnc2c34)cc1",
    "Readout Kind": "TGI",
    "Val": "55.4 µM"
  },
  {
    "Compound": "CCOC(=O)c1c(N2CCCC2)ncn(-c2ccccc2)c1=S",
    "Readout Kind": "TGI",
    "Val": "> 100 µM"
  },
  {
    "Compound": "C/C(=C\\c1ccccn1)c1ccccn1",
    "Readout Kind": "TGI",
    "Val": "> 100 µM"
  },
  {
    "Compound": "CCCn1c(SC)nc(COC(=O)NC)c1COC(=O)NC",
    "Readout Kind": "TGI",
    "Val": "> 100 µM"
  }
]

====

# key: entry, value: TGI
test system: HT29 colon; assay: NCI tumour cell line growth inhibition, 48 h
Readout Kind: TGI

[
  {
    "Compound": "CC1OC2=N[C@@H]1C(=O)N[C@@H](C(C)C)C1=N[C@H](C(=O)N[C@@H](C(C)C)C3=N[C@H](C(=O)N[C@@H](C(C)C)C4=N[C@H](C(=O)N[C@H]2C(C)C)C(C)O4)C(C)O3)C(C)O1 (stereo not given in full)",
    "Test System": "HT29 colon",
    "Val": "> 10 µM"
  },
  {
    "Compound": "O=C(CSCC(=O)N/N=C/c1cccs1)N/N=C/c1cccs1",
    "Test System": "HT29 colon",
    "Val": "> 100 µM"
  },
  {
    "Compound": "CCN(CC)CCNc1ccc([N+](=O)[O-])c2sc3ccccc3c(=O)c12",
    "Test System": "HT29 colon",
    "Val": "1.59 µM"
  },
  {
    "Compound": "Clc1ccc(N2N=C(c3cccc(Nc4ccncc4)c3)CC2c2ccc3c(c2)OCO3)cc1 (stereo not given)",
    "Test System": "HT29 colon",
    "Val": "6.55 µM"
  },
  {
    "Compound": "Cc1ccc(C(=O)N/N=C(\\N=Nc2cccc(Cl)c2)c2ccc(N(CCC#N)CCC#N)cc2C)cc1",
    "Test System": "HT29 colon",
    "Val": "> 100 µM"
  },
  {
    "Compound": "CCOP(=O)(OCC)C(Nc1cccc(F)c1)c1ccccc1 (stereo not given)",
    "Test System": "HT29 colon",
    "Val": "> 100 µM"
  },
  {
    "Compound": "O=C1C(c2c[nH]c3ccccc23)=C(c2c[nH]c3ccccc23)C(=O)N1O",
    "Test System": "HT29 colon",
    "Val": "> 25 µM"
  },
  {
    "Compound": "C[C@H](NC(=O)[C@@H]1CSSC[C@@H](NC(=O)c2nc3ccccc3cc2O)C(=O)NCC(=O)N1C)c1ccccc1",
    "Test System": "HT29 colon",
    "Val": "3.35 µM"
  },
  {
    "Compound": "CCc1c(Cc2cccc3ccccc23)n2c(nc1=O)SCC2OCCO (stereo not given)",
    "Test System": "HT29 colon",
    "Val": "> 100 µM"
  },
  {
    "Compound": "COc1ccc(N2Cc3cnc(Nc4ccccc4)nc3N([C@@H]3CC[C@@H](O)C3)C2=O)cc1",
    "Test System": "HT29 colon",
    "Val": "> 25 µM"
  },
  {
    "Compound": "CC(=O)/C(=C/n1c(=S)[nH]c2ccccc21)C(=O)Nc1ccccc1C",
    "Test System": "HT29 colon",
    "Val": "> 100 µM"
  },
  {
    "Compound": "Cc1ccc(C2=NOC(=O)[C@@H]3CCCC[C@@H]23)cc1",
    "Test System": "HT29 colon",
    "Val": "> 100 µM"
  },
  {
    "Compound": "Cc1ccc(C(C)(C)C[P+](C)(c2ccccc2)c2ccccc2)cc1",
    "Test System": "HT29 colon",
    "Val": "43.8 µM"
  },
  {
    "Compound": "Cc1ccccc1-n1c(C)nc2c1C(=O)c1ccccc1C2=O",
    "Test System": "HT29 colon",
    "Val": "> 100 µM"
  },
  {
    "Compound": "C[C@@H](O)C(=O)N1[C@@H]2CC3CC[C@]2(CS1(=O)=O)C3(C)C",
    "Test System": "HT29 colon",
    "Val": "> 100 µM"
  },
  {
    "Compound": "COc1ccccc1N=C(N)N/N=C/c1c[nH]c2ccccc12",
    "Test System": "HT29 colon",
    "Val": "14.9 µM"
  },
  {
    "Compound": "CC(C)=CCC/C(C)=C/CC/C(C)=C/Cc1c(O)c2ccccc2oc1=O",
    "Test System": "HT29 colon",
    "Val": "> 100 µM"
  },
  {
    "Compound": "CC1CCP(=O)(c2ccccc2)c2ccccc21 (stereo not given)",
    "Test System": "HT29 colon",
    "Val": "> 100 µM"
  },
  {
    "Compound": "O=C(/C=C/c1ccccc1)CC1OC(=O)c2ccccc21 (stereo not given)",
    "Test System": "HT29 colon",
    "Val": "> 100 µM"
  },
  {
    "Compound": "COC[C@@H](N=CN1CCc2cc(OC)c(OC)cc2[C@@H]1C)C(C)(C)C",
    "Test System": "HT29 colon",
    "Val": "> 100 µM"
  },
  {
    "Compound": "CC(=O)NNc1nc(C)c(C(=O)NNC(=O)C(=O)Nc2c(C)cccc2C)s1",
    "Test System": "HT29 colon",
    "Val": "> 100 µM"
  },
  {
    "Compound": "Cc1ccc(S(=O)(=O)NCCNC2=CC(=O)c3nc4ccccc4c4ccnc2c34)cc1",
    "Test System": "HT29 colon",
    "Val": "79.1 µM"
  },
  {
    "Compound": "CC[N+](C)(CC)CCC(O)(c1ccccc1)c1ccccc1",
    "Test System": "HT29 colon",
    "Val": "> 100 µM"
  },
  {
    "Compound": "Nc1ncnc2c1ncn2C1CCC(COS(N)(=O)=O)C1 (stereo not given)",
    "Test System": "HT29 colon",
    "Val": "> 100 µM"
  },
  {
    "Compound": "CC[N+]1(C)CCC(O)(/C=C/c2ccc(OC)cc2)C(C(=O)/C=C/c2ccc(OC)cc2)C1 (stereo not given)",
    "Test System": "HT29 colon",
    "Val": "> 74.5 µM"
  },
  {
    "Compound": "C/C(=N\\NC(=S)N1CCCCC1)c1cccc(C)n1",
    "Test System": "HT29 colon",
    "Val": "16.2 µM"
  },
  {
    "Compound": "O=C1c2ccc([N+](=O)[O-])cc2-c2c1c1ccccc1c(=O)n2CCCNCCCNCCCn1c2c(c3ccc([N+](=O)[O-])cc3c1=O)C(=O)c1ccccc1-2",
    "Test System": "HT29 colon",
    "Val": "1.48 µM"
  },
  {
    "Compound": "CCO/C=C/C(C)C1(C(=O)OCC)CCCCC1=O (stereo not given)",
    "Test System": "HT29 colon",
    "Val": "> 100 µM"
  },
  {
    "Compound": "CCCCC1CC(c2cccc([N+](=O)[O-])c2)=NO1 (stereo not given)",
    "Test System": "HT29 colon",
    "Val": "> 100 µM"
  },
  {
    "Compound": "CC(C)C1(O)C(c2ccccc2)=C(c2ccccc2)C(c2ccccc2)=C1c1ccccc1",
    "Test System": "HT29 colon",
    "Val": "16 µM"
  },
  {
    "Compound": "COc1cc2c(c(OC)c1OC)-c1ccc(N)c(=O)cc1[C@@H](NC(C)=O)CC2",
    "Test System": "HT29 colon",
    "Val": "0.0688 µM"
  },
  {
    "Compound": "CC(=O)OCC1OC(n2c3c(c(-c4cccc5ccccc45)c(C#N)c2=S)CCCC3)C(OC(C)=O)C(OC(C)=O)C1OC(C)=O (stereo not given)",
    "Test System": "HT29 colon",
    "Val": "> 100 µM"
  },
  {
    "Compound": "N=c1oc2ccc3ccccc3c2cc1C(N)=O",
    "Test System": "HT29 colon",
    "Val": "> 100 µM"
  },
  {
    "Compound": "Cc1cc(/C=C\\c2ccc3ccccc3[n+]2C)c(O)c2ncccc12",
    "Test System": "HT29 colon",
    "Val": "21.7 µM"
  },
  {
    "Compound": "C=C(CCCCCCCCC)CC(=O)SCCNC(=O)CCNC(=O)C(O)C(C)(C)COP(=O)(O)OP(=O)(O)OCC1OC(n2cnc3c(N)ncnc32)C(O)C1OP(=O)(O)O (stereo not given)",
    "Test System": "HT29 colon",
    "Val": "> 100 µM"
  }
]
